- cond: in isopropanol, 308.2 K
value.type: solubility (mole fraction)

1. COc1ccc2c3c1O[C@H]1[C@@H](O)C=C[C@H]4[C@@H](C2)N(C)CC[C@@]341.O=P(O)(O)O = 3.6e-05

---

- cond: in NMP, 298.2 K
value.type: solubility (mole fraction)

1. COc1ccc2c3c1O[C@H]1[C@@H](O)C=C[C@H]4[C@@H](C2)N(C)CC[C@@]341.O=P(O)(O)O = 0.00212

---

- cond: in isopropanol, 303.2 K
value.type: solubility (mole fraction)

1) COc1ccc2c3c1O[C@H]1[C@@H](O)C=C[C@H]4[C@@H](C2)N(C)CC[C@@]341.O=P(O)(O)O = 2.99e-05

These entries and their values trace back to BigSolDB 2.1.
